The reader will find reported IC50 values listed item by item below.
biological target: IDH1 wt/IDH1 R132C heterodimer (Homo sapiens (Human), UniProt O75874, R132C); assay: In vitro assay for IDH1m R132C inhibitors, IDH1 wt/IDH1 R132C heterodimer, NADPH depletion (diaphorase/resazurin); details: NADPH/NADP
Sequence (O75874 whole entry R132C): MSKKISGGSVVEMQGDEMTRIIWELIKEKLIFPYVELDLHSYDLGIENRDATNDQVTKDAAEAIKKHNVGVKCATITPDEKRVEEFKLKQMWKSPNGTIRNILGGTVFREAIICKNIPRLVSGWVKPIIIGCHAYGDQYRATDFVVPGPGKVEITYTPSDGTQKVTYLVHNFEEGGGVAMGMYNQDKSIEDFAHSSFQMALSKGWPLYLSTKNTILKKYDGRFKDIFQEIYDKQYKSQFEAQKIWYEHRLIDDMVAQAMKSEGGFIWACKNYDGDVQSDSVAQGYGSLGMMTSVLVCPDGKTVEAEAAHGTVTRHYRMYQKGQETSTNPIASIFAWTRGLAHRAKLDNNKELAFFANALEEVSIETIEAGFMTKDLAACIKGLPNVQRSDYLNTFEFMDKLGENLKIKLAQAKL
Sequence (O75874 whole entry, stated change not applied): as the sequence (O75874 whole entry R132C) above, with C132R counted along it
endpointLabel: IC50

[[record]]
compound = "N#CC1(c2cc(Nc3nc(NC4CCC(F)(F)C4)nc(-c4nccc(C(F)(F)F)n4)n3)ccn2)CC1 (centres unmarked)"
result = "50 to 100 nM"

[[record]]
compound = "FC1(F)CCC(Nc2nc(NC3CCC(F)(F)CC3)nc(-c3cncc(Cl)n3)n2)CC1"
result = "< 50 nM"

[[record]]
compound = "FC1(F)CCC(Nc2nc(Nc3ccnc(C(F)(F)F)c3)nc(-c3cccc(Cl)n3)n2)C1 (centres unmarked)"
result = "< 50 nM"

[[record]]
compound = "FC1(F)CCC(Nc2nc(NC3CCC(F)(F)CC3)nc(-c3nccc(C(F)(F)F)n3)n2)CC1"
result = "100 to 1000 nM"

[[record]]
compound = "FC1(F)CCC(Nc2nc(Nc3ccnc(C(F)(F)F)c3)nc(-c3cccc(C(F)(F)F)n3)n2)CC1"
result = "< 50 nM"

[[record]]
compound = "N#Cc1cc(Nc2nc(NC3CCC(F)(F)C3)nc(-c3cccc(C(F)(F)F)n3)n2)ccn1 (centres unmarked)"
result = "< 50 nM"

[[record]]
compound = "FC1(F)CCC(Nc2nc(NC3CCC(F)(F)C3)nc(-n3ccc(C(F)(F)F)n3)n2)C1 (centres unmarked)"
result = "< 50 nM"

[[record]]
compound = "CC(=O)N1CCC(Nc2nc(NC3CCC(F)(F)C3)nc(-c3cccc(C(F)(F)F)n3)n2)C1 (centres unmarked)"
result = "50 to 100 nM"


* * *

biological target: IDH1 wt/IDH1 R132C heterodimer (Homo sapiens (Human), UniProt O75874, R132C); assay: In vitro assay for IDH1m R132C inhibitors, IDH1 wt/IDH1 R132C heterodimer, NADPH depletion (diaphorase/resazurin); format: biochemical; details: NADPH/NADP
endpointLabel: IC50

[[record]]
compound = "FC1(F)CC(Nc2nc(NC3CC(F)(F)C3)nc(-c3cccc(C(F)(F)F)n3)n2)C1 [Compound 149]"
result = "< 50 nM"

[[record]]
compound = "Fc1cc(F)cc(Nc2nc(NC3CCC(F)(F)CC3)nc(-c3cccc(C(F)(F)F)n3)n2)c1 [Compound 125]"
result = "< 50 nM"

[[record]]
compound = "CC(C)Nc1nc(Nc2ccnc(C(C)(F)F)c2)nc(-c2nccc(C(F)(F)F)n2)n1 [Compound 298]"
result = "≥ 1000 nM"

[[record]]
compound = "CC(C)(O)CNc1nc(Nc2cc(F)cc(C#N)c2)nc(-c2cccc(C(F)(F)F)n2)n1 [Compound 244]"
result = "100 to 1000 nM"

[[record]]
compound = "FC1(F)CCC(Nc2nc(NC3CCC(F)(F)CC3)nc(-c3cccc(OC(F)(F)F)n3)n2)CC1 [Compound 296]"
result = "≥ 1000 nM"

[[record]]
compound = "N#Cc1ccc2c(c1)CC(Nc1nc(NC3CCC(F)(F)C3)nc(-c3cccc(C(F)(F)F)n3)n1)C2 (stereo not shown) [Compound 242]"
result = "50 to 100 nM"

[[record]]
compound = "FC1(F)CCC(Nc2nc(NC3CCC(F)(F)CC3)nc(-c3ccnc(C(F)(F)F)n3)n2)CC1 [Compound 270]"
result = "100 to 1000 nM"

